# Test system: UACC-62 melanoma
# protocol-notes: NCI tumour cell line growth inhibition, 48 h
The entries below come with measured TGI values attached.
Please respond with the number in µM and leave the unit unwritten.

Cc1c(C(=O)N2CCN(c3ccc([N+](=O)[O-])cc3)CC2)[n+](=O)c2cc(Cl)c(Cl)cc2n1[O-]    34
OCC1OC(n2ccc3c(NO)ncnc32)C(O)C1O (stereo unspecified)    0.326

Fill in the blank: the reported TGI of "O=C1Sc2ccc(Br)cc2C(=O)Sc2ccccc21" is ____.
31.8

Quick one: TGI for "CCOC(=O)C(=Cc1ccccc1[N+](=O)[O-])C(=O)OCC" ?
3.39

Param item = "CCCCCCCCCCN(CCCCCCCCCC)CC(=O)c1ccc2cc(Br)c3ccccc3c2c1" ; retrieve measured TGI.
3.35

Recorded TGI for "FC(F)(F)c1ccccc1N1CCN(c2nc(-c3cccs3)nc3ccc(Br)cc23)CC1" , please?
46.3

###

# key: entry, value: TGI
# Test system: T-47D breast
# protocol-notes: NCI tumour cell line growth inhibition, 48 h

Use these answered entries as a reference point.
Nc1nnc2cc(Cl)ccc2n1    > 100 µM
CCOC(=O)c1c(Br)c(-c2ccc(Br)cc2)c(Br)n1C    > 100 µM
Nc1ccc(S(=O)(=O)C23CC4CC(CC(C4)C2)C3)cc1    > 100 µM
CC(C)c1ccc(C(=O)Nc2sc3c(c2C#N)CCC(=O)C3)cc1    1.48 µM
CN(C)c1nc(NC23CC4CC(CC(C4)C2)C3)nc(N(C)C)n1    49.6 µM

For the next question, use this compound.
// TGI lookup, key: O=C1CC(=O)c2c(O)cc(O)c(c2O)-c2c(ccc(O)c2O)C2=CC(=O)c3c(O)cc(O)c(c3O2)-c2c1ccc(O)c2O (tested in a mixture with another compound)
> 50 µM

###

# Tested on: DU-145 prostate
# protocol-notes: NCI tumour cell line growth inhibition, 48 h
Reported TGI values for the following molecules.

Guide cases for TGI, answers given:
Cc1cc(C)c(C[N+](C)(C)C)c(C)c1C    11.4 µM
C=CCOCn1cnc2c(N)ncnc21    > 100 µM
CC(C)[C@@H]1CC[C@@H](C)C[C@H]1OC(=O)/C=C1/C2C=CC(O2)C1C(=O)O[C@@H]1C[C@H](C)CC[C@H]1C(C)C (stereo not given in full)    > 100 µM
Cc1ccc(OCC2OC(n3cnc4nc(Cl)nc(Cl)c43)CC2Oc2ccc(C)cc2)cc1 (stereo not given)    27.2 µM

Name the reported TGI value associated with the molecule "Cc1cc(CNC(=O)OCc2ccccc2)c(C)c2c1Oc1ccccc1O2"
> 100 µM

# lookup: TGI of "Nc1ccc(S(=O)(=O)C23CC4CC(CC(C4)C2)C3)cc1"
> 100 µM

I would be grateful if you could share the reported TGI for "O=c1[nH]nc(-c2ccccc2)n1/N=C/c1ccncc1" .
> 100 µM

TGI for "FC(F)(F)c1ccccc1N1CCN(c2nc(-c3cccs3)nc3ccc(Br)cc23)CC1" ?
> 100 µM

Which measured TGI value corresponds to "CCOC(=O)Nc1c(C#N)[n+]([O-])c2cc(Cl)c(Cl)cc2[n+]1[O-]" ?
> 100 µM

What value of measured TGI is listed for "O=[N+]([O-])/C(C(Cl)=C(Cl)Cl)=C1\NCCO1" ?
> 100 µM
